This collection of values is drawn from the supplement of paper PMC13380429.

Please respond with reported SARS-CoV-2 infection rate for every item in the list.
Tested on: Vero E6 infected with SARS-CoV-2
Assay: SARS-CoV-2 infection rate relative to infected DMSO; higher = more infection, active = 60 or less
Details: 24 h

COMPOUND	SARS-CoV-2 infection rate
Cn1ccnc1S [methimazole] (10 µM)	108% (inactive)
CC(C)[C@@H]1CC[C@@H](C)C[C@H]1O [levomenthol] (10 µM)	108% (inactive)
CCNC(=O)[C@H]1O[C@@H](n2cnc3c(N)ncnc32)[C@H](O)[C@@H]1O (10 µM)	92% (inactive)
CCCCCCCCCCCCCCCCCCOP(=O)([O-])OC1CC[N+](C)(C)CC1 [perifosine] (10 µM)	104% (inactive)
Cc1cc([C@@H](C)Nc2ccccc2C(=O)O)c2nc(N3CCOCC3)cc(=O)n2c1 (10 µM)	105% (inactive)
CNC(=O)[C@H]1O[C@@H](n2cnc3c(NCc4cccc(I)c4)nc(Cl)nc32)[C@H](O)[C@@H]1O (10 µM)	107% (inactive)
CCC(=O)N1CCN(c2ccc(-n3c(=O)ccc4cnc5ccc(-c6cnc7ccccc7c6)cc5c43)cc2C(F)(F)F)CC1 [torin-1] (10 µM)	107% (inactive)

The compound listed as O=C(CCc1ccncc1)NNC(=O)N1Cc2ccccc2Oc2ccc(Cl)cc21 (10 µM) shows SARS-CoV-2 infection rate equal to 108% (inactive)
